Just for reference, PubChem BioAssay is where these values come from.

target: Torsin-1A-interacting protein 1 (Homo sapiens); assay: LAP1 binders from COS7 cell lysate, primary screen, small-molecule microarray, 635/667 nm fluorescence (AID 1116); conditions: COS7-hLAP1 lysate binding, 635 nm fluorescence, higher = more signal
readout: composite z-score
Reply with the value as a number alone.

1. C[N+](C)(C)CCCCNC(=O)[C@@H]1C[C@@H]2C(=O)N3CCC[C@H]3C(=O)N2[C@@H]1c1cccc(OCCO)c1 = 1.62
2. CC(C)C[C@@H]1NC(=O)[C@H]2C[C@@H](C(=O)NCCCCCC[N+](C)(C)C)[C@@H](c3ccc(O)cc3)N2C1=O = 0.418
3. O=C(NCC(F)(F)F)[C@@H]1c2ccccc2C(=O)N(Cc2ccccc2Cl)[C@H]1c1ccc(CO)cc1 = -1.19
4. C=CCC(OC(C)=O)[C@@H]1[C@@H](N(Cc2ccc(-c3cccc(C(F)(F)F)c3)o2)C(=O)Cc2ccc(F)cc2)c2cc(OCCCO)ccc2N1C(=O)c1ccc(-c2ccccc2)cc1 (stereo partly drawn) = 0.14
5. C=CC(=O)O[C@@H](Cc1ccccc1)[C@H]1C2C=CCCC=C2CN1Cc1cccc(Cl)c1 (stereo partly drawn) = -0.103
6. CO[C@H]1COC(=O)[C@H](Cc2ccccc2)NC(=O)CC=C[C@@H](C)[C@H](OC)COC(=O)CC=C[C@@H]1C = 0.311
7. C=CCC1=C[C@H]2[C@H]([C@@H]3C=C[C@]2(CC=C)C(=O)[C@]32CO2)[C@@]2(CO2)C1=O = 0.163

What value of composite z-score has been reported for the following compound? CCOC(=O)C[C@H]1[C@H](OC(=O)c2ccccc2-c2ccccc2)[C@@H](NC(=O)c2ccc(-c3ccccc3)cc2)c2cc(OCCCO)ccc2N1C(=O)Cc1ccc(OC)cc1
-0.0098

###

test: osmotic lysis modulators in infected erythrocytes, primary screen, PSAC antagonist project, cell-based, P. falciparum Indochina, OD700, 3 h (AID 1156); conditions: called active from +8 up or from −8 down
Calls of active or inactive are those of the source.
Form entry, call: pick from active, inactive

Observe how each entry below is paired with its result.
1) [N-]=[N+]=NCc1ccccc1C[C@]1(C(N)=O)N=C(c2ccc(OCCCO)cc2)O[C@H]1c1ccccc1CN=[N+]=[N-] = inactive
2) CC(C)(C)OC(=O)CC[C@@]1(C(=O)NCc2ccccc2)N=C(c2ccc(OCCCO)cc2)O[C@@H]1c1ccccc1 = inactive
3) NC(=O)NCC#Cc1ccc2c(c1)[C@]1(C(=O)N2)[C@H](C(N)=O)[C@H]2C(=O)O[C@H](c3ccccc3)[C@H](c3ccccc3)N2[C@@H]1c1ccccc1OCCO = inactive
4) CN1C(=O)C2C=CC(C(O)C3CC=CCC3)N(Nc3ccccc3)C2C1=O (stereo unspecified) = inactive
5) [N-]=[N+]=NCc1ccccc1C[C@@]1(C(=O)O)N=C(c2ccc(OCCCO)cc2)O[C@@H]1c1ccccc1N=[N+]=[N-] = inactive
6) CC(C)[Si]1(C(C)C)OCc2cc(C3CC3)nc(-c3ccccc3)c21 = inactive
7) CC/C=C/C(=O)N(C[C@@H]1CCCO1)[C@@H]1CC(C(=O)NCCO)=C[C@H](Oc2c(I)cc(CO)cc2OC)[C@H]1O = inactive
8) CCOC(=O)C[C@H]1[C@H](OC(=O)Cc2ccc3c(c2)OCO3)[C@@H](NC(=O)c2ccc3ccccc3c2)c2cc(OCCCO)ccc2N1C(=O)Cc1ccc(OC)cc1 = inactive

I would be grateful if you could indicate the recorded call for O=C1O[C@H](c2ccccc2)[C@H](c2ccccc2)N2[C@H]1[C@@H](C(=O)NC[C@H](O)c1ccccc1)[C@]1(C(=O)Nc3ccc(C#CC4=CCCCC4)cc31)[C@H]2c1ccc(OCCO)cc1 .
inactive

Name the outcome recorded for C=CC[C@]1(C(=O)NCC(O)CO)N=C(c2ccc(OCCCO)cc2)O[C@H]1c1ccccc1 (stereo partly specified) in the assay.
inactive
